Recorded values, source patent US11529424B2.

Molecular target: collagen (coated on 96-well plates, Example 2)
Test: collagen-coated 96-well plate, biotin-labelled bioconjugate, streptavidin-HRP/TMB, absorbance at 450 nm (Example 2)
Ends that are not written are not given here.
reported.endpoint: EC50 (read off the curve) (µg/mL)

Observe how each entry below is paired with its result.
## Input Reported EC50 (read off the curve), binder GQLYKSILYGSGRRGSG (not fully specified; C-terminal hydrazide (-NHNH-) bonded to a carboxyl of heparin; part of the peptides biotin-labelled) [Compound 4 (heparin bioconjugate of …-NHNH2)] : ____
## Output 50

## Input Reported EC50 (read off the curve), binder GQLYKSILYGSGRGSGSGSG (not fully specified (C-terminus); printed as GQLYKSILYGSGRGSGSGSG-; also: about 5 peptides per heparin (16 kDa), part of the peptides biotin-labelled) [Compound 13 (heparin bioconjugate of …-NHNH2)] : ____
## Output 60

P: GQLYKSILYGSGKKGSG (also: conjugated to heparin) [Compound 14 (heparin bioconjugate of …)]
Q: GQLYKSILYGSGSGSRR (not fully specified; C-terminal hydrazide (-NHNH-) bonded to a carboxyl of heparin; part of the peptides biotin-labelled) [Compound 10 (heparin bioconjugate of …-NHNH2)]
## Input For this pair, P and Q , which shows a numerically higher EC50 (read off the curve)? Provide the label of your selected option as the answer.
## Output P
(P: 60 µg/mL, Q: 20 µg/mL)
